assay: Ratio of total drug level in brain to blood in Han Wistar rat at 30 mg/kg, po measured at 1 hr by LC-MS/MS analysis; format: ADME, organism-based; parameters: dose 30 mg/kg, route oral; conditions: read-out: BBR
We use 0.4 as the dividing line for Kp at 1 h: on or above the line is 1, below is -1.

Compound	Assigned Category
C[C@@H]1CN(c2ncc(C(=O)NC3C4CC5CC3CC(O)(C5)C4)c([C@H]3CCCO3)n2)C[C@H](C)O1 (stereo not given in full)	-1
COc1nc([C@H]2CCCO2)c(C(=O)N[C@H]2C3CC4CC2C[C@](O)(C4)C3)s1	1
COCCOc1nc([C@H]2CCCO2)c(C(=O)NC2C3CC4CC2CC(O)(C4)C3)s1 (stereo not given in full)	1
Cc1nc([C@H]2CCCO2)c(C(=O)N[C@H]2C3CC4CC2C[C@](O)(C4)C3)s1	1

====

test: AUC in Han Wistar rat whole blood at 7.4 umol/kg, po

Entry Smiles	AUC / µM·h
O=C(N[C@H]1C2CC3CC1C[C@](O)(C3)C2)c1sc(OC2CCOCC2)nc1[C@H]1CCCO1	3.9

====

assay: Oral bioavailability in Han Wistar rat at 7.4 umol/kg; assay type: ADME, organism-based; settings: in vivo

Entry Smiles	bioavailability, %
O=C(N[C@H]1C2CC3CC1C[C@](O)(C3)C2)c1sc(OC2CCOCC2)nc1[C@H]1CCCO1	83

====

experiment: Ratio of free drug level in brain to blood in diet-induced obese C57B6 mouse model at 4 to 40 mg/kg/day administered through diet for 21 days measured on day 24; assay type: ADME, organism-based; details: po

Entry Smiles	Kp uu at 504 h
O=C(N[C@H]1C2CC3CC1C[C@](O)(C3)C2)c1sc(OC2CCOCC2)nc1[C@H]1CCCO1	0.5

====

assay: Clearance in C57B6 mouse at 4 umol/kg, iv; type: ADME, organism-based; conditions: in vivo

Entry Smiles	clearance [mL/min/kg]
N#CC1(COc2nc(C3CC3)c(C(=O)N[C@H]3C4CC5CC3C[C@](O)(C5)C4)s2)CC1	18

====

test: Oral bioavailability in Han Wistar rat; format: ADME, organism-based; conditions: in vivo

Molecule	bioavailability / %
COc1nc(C)sc1C(=O)N[C@H]1C2CC3CC1C[C@](O)(C3)C2	23
COCCOc1nc([C@H]2CCCO2)c(C(=O)NC2C3CC4CC2CC(O)(C4)C3)s1 (stereo partly specified)	24
C[C@@H]1CN(c2ncc(C(=O)NC3C4CC5CC3CC(O)(C5)C4)c(C3CCCC3)n2)C[C@H](C)O1 (stereo partly specified)	70
COc1nc(C2CC2)c(C(=O)N[C@H]2C3CC4CC2C[C@](O)(C4)C3)s1	45
COC[C@H](C)Oc1nc([C@H]2CCCO2)c(C(=O)NC2C3CC4CC2CC(O)(C4)C3)s1 (stereo partly specified)	16
C[C@@H]1CN(c2ncc(C(=O)NC3C4CC5CC3CC(O)(C5)C4)c([C@H]3CCCO3)n2)C[C@H](C)O1 (stereo partly specified)	35
COc1c(C(=O)NC2C3CC4CC2CC(O)(C4)C3)cnn1C (stereo unspecified)	27
O=C(N[C@H]1C2CC3CC1C[C@](O)(C3)C2)c1sc(OC2CCOCC2)nc1C1CC1	53
Cc1nc([C@H]2CCCO2)c(C(=O)N[C@H]2C3CC4CC2C[C@](O)(C4)C3)s1	11
COc1nc([C@H]2CCCO2)c(C(=O)N[C@H]2C3CC4CC2C[C@](O)(C4)C3)s1	40
CS(=O)(=O)Cc1nc([C@H]2CCCO2)c(C(=O)NC2C3CC4CC2CC(O)(C4)C3)s1 (stereo partly specified)	65
O=C(N[C@H]1C2CC3CC1C[C@](O)(C3)C2)c1sc(OCCO)nc1C1CC1	25
O=C(NC1C2CC3CC1CC(O)(C3)C2)c1cnc(N[C@H]2CCOC2)nc1C1CCCC1 (stereo partly specified)	64
COCCOc1nc(C2CC2)c(C(=O)N[C@H]2C3CC4CC2C[C@](O)(C4)C3)s1	23
O=C(NC1C2CC3CC1CC(O)(C3)C2)c1scnc1[C@H]1CCCO1 (stereo partly specified)	0
Cc1nc(C2CC2)c(C(=O)N[C@H]2C3CC4CC2C[C@](O)(C4)C3)s1	12

The reported measurements were obtained from ChEMBL document CHEMBL3124933.
